system: MS2 coat protein; assay: apparent KD of MS2 coat protein, switch OFF state (with FMN for OFF switches, without FMN for ON switches); designed switch direction (-1 OFF switch, 1 ON switch): -1; higher = weaker reporter binding; settings: FMN input: 0 or 200 uM; Eterna round: R93 (includes R88 designs)
Reported apparent KD of MS2 coat protein values for a set of sequences
Report only the number, with the unit µM understood.

Example entries begin here.
AAGAAGCUAGGAUAUACAUGAAAGAAAGAAAAGAAAAGAAAACAUGAGGAUCACCCAUGUAGAAGGAGCUAGAA [EteRNA is fun!] ... 0.0325
UCCAGACAUGAGGAUCACCCAUGUCAGGAUAUCUAGAAAACCUCAUGUAAAAAAAACUAGAGAAGGGAUAUGGA [Design 95: Pseudoknot E] ... 0.0148
AAGAACCGAGGAUAUACAUGAGGAUCACCCAUGUAAAAGAAAGAAGGGAAAGAGAAAAGUAGAAGGCGGAAGAA [Usermaatre Shoshenq VI] ... 0.0343
AAAAAGCGAGGAUAUACAUAGCUAAGACAAAUAAGCAAAAAACAUGAGGAUCACCCAUGUAGAAGGCGCAAAAA [Exclusion2-01] ... 0.0154
CUCUUGUCAGGAUAUGCAAGAAAAGAAAAGAAAGAAAAGAAGCAGAAGGGACAUGAGGAUCACCCAUGUAAGAA [EteRNA is fun!] ... 0.0777

Give its apparent KD of MS2 coat protein value. Item: AGUCAUACAGGAUAUACAUGAGGAUCACCCAUGUAUAUCCAAAAAAAAAAAUCCUCAUGUAGAAGGGUAUGACA [EX3 205: Super Stable 5]
0.0187

Give its apparent KD of MS2 coat protein value. Item: AACAGUACAGGAUAUACAUGAGGAUCACCCAUGUGAAAAUUAAGUGGAAAACCACAAAGUAGAAGGGUACUGAA [Mat - Exclusion 3 - Eli mod - D58]
0.0617

Give its apparent KD of MS2 coat protein value. Item: AAGAAGUCAGGAUAUACAUGAGGAUCACCCAUGUAAAAGAAAGAAAAGGGAAAGAAAAGUAGAAGGGACAAGAA [Menkheperre Thutmose III]
0.208

Give its apparent KD of MS2 coat protein value. Item: ACCAAUGGAGGAUAUACAUGAGGAUCACCCAUGUUUAUCCUACAUAGGUGAAAAAUAUGUAGAAGGCCAUAGGA [EX3 238: Super Stable 38]
0.0108

Give its apparent KD of MS2 coat protein value. Item: UAACAGUCAGGAUAUGGACAAUACAAUACAAACAAAUAAAGCCAGAAGGGACAUGAGGAUCACCCAUGUAAACA [Simple]
0.023

====

system: MS2 coat protein; assay: apparent KD of MS2 coat protein; designed switch direction (-1 OFF switch, 1 ON switch): -1; higher = weaker reporter binding; details: input ligand: FMN 200 uM
Categorize each record by its apparent KD of MS2 coat protein using L = under 30 nM, M = from 30 nM up to 100 nM, H = 100 nM and over

Illustrative cases are given below, each with its answer.
UUAAAUCAUGUAGGAUAUGCGUGGCGAAGCUAUGCAGAAGGACAUGAGGAUCACCCAUGUGCUUGCGUCCGCGUACGGAUGCUA [JL ENG1 1.22] (Eterna round: R96, puzzle: Exclusion NG 1) ... H
UCCAGGCGAGGAUAUACAAAGAUUUUUUCGUUUUGUCUCGAACAUGAGGAUCACCCAUGUAGAAGGUGCUUCUG [JR_Ex2_Sub012] (Eterna round: R97, puzzle: Exclusion 2) ... H

Moving on to another sequence below.
Any idea which band CGGCGCCUAGGAUAUACUCUGAGAAUCAGUUGGGUCUCCGGACAUGAGGAUCACCCAUGUAGAAGGAGGAAGCU [EX2 C.11] (Eterna round: R97, puzzle: Exclusion 2) is in?
L

====

test system: MS2 coat protein; assay: apparent KD of MS2 coat protein; higher = weaker reporter binding; settings: Eterna round: R107; input ligand: none
Reported apparent KD of MS2 coat protein values for a set of sequences
Report only the number, with the unit nM understood.

For the record GUAGCGACGGCGGCCGCCACUCGCACGUGAGGGUAGACCAACCUUCACAUGAGGAUCACCCAUGUGAGGACCGGGCUGUCGCUAC [#15 Exclusion Tryptophan B] , what value of apparent KD of MS2 coat protein is listed for MS2 coat protein?
23.8

====

Reported apparent KD of MS2 coat protein values for a set of sequences
tested on: MS2 coat protein; test: apparent KD of MS2 coat protein; higher = weaker reporter binding; details: Eterna round: R107; input ligand: tryptophan 2.4 mM
Please append the unit to your numeric answer.

CGUAUCGUAACUGAUACCAGUGUACUGACAUGAGGAUCACCCAUGUUGGGUUUUGUUGUACACCCUUGGCAGCAGAAUCGAUACG [AstrosExyTheB#6] ... 62.9 nM
GGUUGAAACUGAAGGAGCGAGAUGACAACAUUGGGUCUAACAUGAGGAUCACCCAUGUAAUCUCAGGUAGGUCGCAGUGACCAAA [Exclusion Arginine B GF 14] ... 43.1 nM
UGUAUGUGAUUUGAUACCAGACCAGCUGGUGGUACAUGAGCAUCAGCCAUGUAGGUUUGGGUCCCUUGGCAGCAAAUCGCAUACU [SS Theo B #24 Ms2] ... 21.4 nM
UGACAUUGCUCAGAUACCAGACAUGAGCAUCAGCCAUGUGCCAACAAGUACAAAAUAAAAGUCCCUUGGCAGCUGAGCAAUGUCU [TheoBX 21 #MS2Left #AlternativeMS2 #Theo2] ... 10.6 nM
AGAAUAACAUGAGCAAAGCUCAUGUGCGAAGGAGCGGCGGAAACGCCAGGUAGGUCGCGCACAUGAGCAUCAGCCAUGUGUACCA [Omei Arginine B SS A v5] ... 58.9 nM
ACAUGAGGAUCACCCAUGUACAUGAGGGAAGGAGCGGUACAUGUACCAGGUAGGUCGCCCAACAGCAUCAGCCAUGUACAUCAGC [ggvmullin] ... 69 nM
AUCGUACCUGGUGAUACCAGCAAUUGCUCGUGACAUGAGGAUCACCCAUGUGACCAGUGAUGCCCUUGGCAGCAUGGUCGGUGCA [Same State - Theophylline B (Freestyle 23)] ... 61.2 nM
ACAUGAGGAUCACCCAUGUAAAUAACGGAAGGAGCGUGCGAAAGCACAGGUAGGUCGCCGAUAUAAAUAUUGGGUAUUAUAUUAU [#28 Exclusion - Arginine A] ... 28.8 nM
AUAAGUAAUGUCUCGUGUAUUAUUACAGAUACCAGACUAUCCUAUGUCCCUUGGCAGCUGGAUUACAUGAGGAUCACCCAUGUUG [#10 Exclusion-TheophyllineA] ... 22 nM
CAUUAAUUACGAAGGAGCGUCGAGAAUGGGUAAACAUGAGGAUCACCCAUGUGAAGGGAACGGCAGGUAGGUCGCGUAAUUAAUG [#22 Same State - Arginine B] ... 60.5 nM

Moving on to the next sequence.
Give its apparent KD of MS2 coat protein value. Item: UUGACAUGAGGAUCACCCAUGUAAACUGAAGGAGCGUCGAAAAUGACAGGUAGGUCGCAGAAUAAUAAAGGUGAUGGUAAAUAUU [Exclusion Arginine AGF1]
29.3 nM

====

system: MS2 coat protein; test: apparent KD of MS2 coat protein; higher = weaker reporter binding; conditions: Eterna round: R107; input ligand: none
Reported apparent KD of MS2 coat protein values for a set of sequences
Please append the unit to your numeric answer.

Example entries begin here.
CUCUCAUGAACAUGAGGAUCACCCAUGUAACGAGGACCGGUACGGCCGCCACUCGAACGUGGAUACCAAUCGAGUGGGUGAGAGA [Tryp A Ex t5] ... 21.5 nM
UGACAUUGCUCAGAUACCAGACAUGAGCAUCAGCCAUGUGCCAACAAGUACAUAAUAAAUGUCCCUUGGCAGCUGAGCAAUGUCU [TheoBX 16 #MS2Left #Theo2 #AlternativeMS2] ... 13 nM
GUCGCUGAGGGAAGGAGCGUGAAGACAUGAGGAUCACCCAUGUAGAGGCGCCGAAGGCGUUCGCAGGUAGGUCGCCCUCAGUGAA [#1 Same State - Arginine B Attempt #25 (HarryS)] ... 14.1 nM
AAUUCCUAACAUGAGGAUCACCCAUGUGAAGGAGCGCGGAAUAACGCAGGUAGGUCGCACAUGGAACCGCUGCGAUAGCAGCAAA [MAT - Exclusion Arginine A - Mod of Eli - D29] ... 14.4 nM

Moving on to the next sequence.
Give its apparent KD of MS2 coat protein value. Item: ACACAUGAGGAUCACCCAUGUGCGCUGGAAGGAGCGCAGAAUCAUGCAGGUAGGUCGCCAGUGCCCUCUACUAAAGGGAAAAGAG [Diatsoceri]
72 nM
